experimental target: NGF (nerve growth factor) (Homo sapiens, UniProt P01138 P01138:122-241)
Sequence (P01138 122-241, one chain of several): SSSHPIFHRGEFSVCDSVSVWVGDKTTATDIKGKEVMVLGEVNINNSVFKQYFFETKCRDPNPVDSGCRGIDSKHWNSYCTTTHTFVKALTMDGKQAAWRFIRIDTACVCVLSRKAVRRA
procedure details: cell_activity; neurite; TF-1 0.178
details: tags: R&D Systems; chain copies: 2
metric name: IC50 (nM)
Give bare numbers, in nM.

According to the records, this binder GGGUCCUGCUCAAGAGUUUCCGUCUCGUGGGCUGUUACCC (ssRNA, as 87(4) plus 2'-OMe A15,A37; no 5' idT) [SEQ ID NO: 87(5)] displays IC50 of 0.078
